- study_target: hHER3 full length (human, UniProt P21860 20-1342)
- method_description: cell-based or functional assay
Item-by-item account of IC50, HRG1-β1 induced pAkt, MCF-7
Report only the number, with the unit M understood.

// returns reported IC50, HRG1-β1 induced pAkt, MCF-7 for input 04C07 (VHH, also called HER3MS04C07; HER3MS004C07) VHH: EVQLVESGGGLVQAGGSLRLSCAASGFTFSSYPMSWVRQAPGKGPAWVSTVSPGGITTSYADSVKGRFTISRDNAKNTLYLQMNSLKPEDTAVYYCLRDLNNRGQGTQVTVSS
1.09e-08

// returns reported IC50, HRG1-β1 induced pAkt, MCF-7 for input 17B05 (VHH, also called HER3MS17B05; HER3MS017B05) VHH: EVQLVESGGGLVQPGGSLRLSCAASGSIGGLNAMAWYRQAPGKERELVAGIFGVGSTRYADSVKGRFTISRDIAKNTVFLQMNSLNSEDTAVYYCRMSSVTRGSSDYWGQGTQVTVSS
7.83e-09

// returns reported IC50, HRG1-β1 induced pAkt, MCF-7 for input 23F05 (VHH) VHH: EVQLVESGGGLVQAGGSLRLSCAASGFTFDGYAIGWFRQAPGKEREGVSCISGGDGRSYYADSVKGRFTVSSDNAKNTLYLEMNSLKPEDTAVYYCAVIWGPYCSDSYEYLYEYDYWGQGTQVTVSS
4.65e-08

// returns reported IC50, HRG1-β1 induced pAkt, MCF-7 for input 18E08 (VHH) VHH: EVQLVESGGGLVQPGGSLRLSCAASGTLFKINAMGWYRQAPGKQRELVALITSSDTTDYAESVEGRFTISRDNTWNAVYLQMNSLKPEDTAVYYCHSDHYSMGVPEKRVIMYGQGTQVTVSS
5.69e-08

// returns reported IC50, HRG1-β1 induced pAkt, MCF-7 for input 18G11 (VHH, c-myc, His6-tagged form as expressed; also called HER3MS18G11; HER3MS018G11) VHH: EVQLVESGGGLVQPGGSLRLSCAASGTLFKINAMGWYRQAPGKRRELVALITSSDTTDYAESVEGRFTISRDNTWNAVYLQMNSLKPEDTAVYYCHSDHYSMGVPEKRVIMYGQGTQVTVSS
1.38e-07
